Assay Info: self-splicing fitness, log relative to wild type (ln ratio); higher = more splicing; Tetrahymena group I intron in knt gene, E. coli kanamycin selection, DiMSum; sequences stand for … in CUCUCU…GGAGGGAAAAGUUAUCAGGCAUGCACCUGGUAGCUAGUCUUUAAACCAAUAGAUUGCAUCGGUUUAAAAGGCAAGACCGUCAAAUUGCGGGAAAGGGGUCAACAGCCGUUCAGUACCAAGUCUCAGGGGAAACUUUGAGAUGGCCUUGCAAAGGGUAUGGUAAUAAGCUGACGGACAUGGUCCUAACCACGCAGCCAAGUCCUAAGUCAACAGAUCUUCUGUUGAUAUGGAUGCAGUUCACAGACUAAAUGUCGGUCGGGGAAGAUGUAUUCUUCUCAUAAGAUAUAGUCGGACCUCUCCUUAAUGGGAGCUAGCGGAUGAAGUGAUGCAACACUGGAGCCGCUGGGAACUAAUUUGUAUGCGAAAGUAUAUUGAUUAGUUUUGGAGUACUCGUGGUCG;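 also: selection with 25 µg/mL kanamycin versus none on LB agar overnight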
Condition: 37 °C
Classify by self-splicing fitness (ln). Ranges: 1: < -2; 2: ≥ -2 and < -1; 3: ≥ -1

Worked examples, 2 sequences total:
AAGCAGCAAUAUUACGUUAU :: 2
UAUCAGCAAUAUUACGAACU :: 3

Categorize the following entry: ACGGAGCAAUAUUACGGUCU 1

Categorize the following entry: GGAGAGCAAUAUUACGAGCG 2

Categorize the following entry: UGUUAGCAAUAUUACGUGCC 3

Categorize the following entry: UACGAGCAAUAUUACGCUCG 2

Categorize the following entry: CUAAAGCAAUAUUACGCUGA 1

Categorize the following entry: ACUUAGCAAUAUUACGGCCU 3

Categorize the following entry: UCUCAGCAAUAUUACGUACG 2

Categorize the following entry: UCUCAGCAAUAUUACGAACU 2

# credit: the supplement of paper PMC7877785
